Test: qHTS assay to identify small molecule antagonists of the estrogen receptor alpha (ER-alpha) signaling pathway using the BG1 cell line - cell viability counter screen (AID 743081);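 also: compound given together with 17beta-estradiol as the ER stimulus; nearly all actives have a fitted effect of over 45% in size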
Settings: BG1Luc4E2 viability, CellTiter-Fluor, 22 h; series mostly up to 70.3 µM
Records with an inconclusive call do not appear. The source made the active and inactive calls. Calls follow the shape of the dose curve; as a rule, active = well fitted cell-killing curve with a large enough effect in the repeat runs; inconclusive = weak or mixed curves, or effect the other way; inactive = flat fitted curve, though single readings scatter.
VALUE_TYPE: Potency

- COMPOUND: "CCCCOc1ccc(OCCCN2CCOCC2)cc1"
  Potency: "inactive"
- COMPOUND: "CC1(C)O[C@@H]2C[C@H]3[C@@H]4C[C@H](F)C5=CC(=O)C=C[C@]5(C)[C@H]4[C@@H](O)C[C@]3(C)[C@]2(C(=O)CO)O1"
  Potency: "inactive"
- COMPOUND: "CCCCCCCCN"
  Potency: "inactive"
- COMPOUND: "C=COCC(C)C"
  Potency: "inactive"
- COMPOUND: "CC1CC(C)C(=O)C1=O (stereo unspecified)"
  Potency: "inactive"
- COMPOUND: "CCC(OCCCOC)OC(C)=O (stereo unspecified)"
  Potency: "inactive"
- COMPOUND: "O=C1CCCCCCCCCCOCCCCO1"
  Potency: "inactive"
- COMPOUND: "C1C[C@@H]2[C@H]3CC[C@H](C3)[C@@H]2C1"
  Potency: "inactive"
- COMPOUND: "Cc1c(C)c2c(c(C)c1OC(=O)CCC(=O)OCCO)CC[C@@](C)(CCC[C@H](C)CCC[C@H](C)CCCC(C)C)O2"
  Potency: "inactive"
- COMPOUND: "CCC(=O)C1CC(C(C)C)CC=C1C (stereo unspecified)"
  Potency: "inactive"

Can you give me Potency for all of these, one by one?
1. Cc1cc(C)cc(N)c1
2. CCOc1cccc(-n2cc(C(=O)N3CCN(c4cc(C(=O)O)c5ccccc5c4)CC3)nc2-c2ccc(C)cc2)c1
3. CCOC(=O)[C@H](CCc1ccccc1)N[C@@H](C)C(=O)N(CC(=O)O)C1Cc2ccccc2C1
4. CCC1NC(=O)c2cc(S(N)(=O)=O)c(Cl)cc2N1 (stereo unspecified)

Reply text:
inactive
inactive
inactive
inactive

---

Assay: qHTS assay to identify small molecule agonists of the androgen receptor (AR) signaling pathway in the presence of an antagonist - cell viability counter screen (AID 1259379); also: nearly all actives have a fitted effect of over 25% in size; also: potency is read from the fitted curve at half-maximal effect
Details: MDA-kb2 viability, CellTiter-Fluor, 16 h; series mostly up to 92.4 µM
Records with an inconclusive call do not appear. Activity calls are given as the source filed them. The call rests on the fitted dose curve; in most records, active means well fitted cell-killing curve with a large enough effect in the repeat runs; inconclusive means weak or mixed curves, or effect the other way; inactive means flat fitted curve, though single readings scatter.
VALUE_TYPE: Potency

Worked cases, Potency given:
- COMPOUND: "Oc1cccc(Nc2ccccc2)c1"
  Potency: "inactive"
- COMPOUND: "O=c1c(O)c(-c2ccc(O)cc2)oc2cc(O)cc(O)c12"
  Potency: "inactive"
- COMPOUND: "O=C1C(=O)c2ccccc2C(O)=C1C1CCC(c2ccc(Cl)cc2)CC1 (stereo not drawn)"
  Potency: "23.7 µM (active)"
- COMPOUND: "CCCCN(CCN(CCCC)C(=O)N1CCOCC1)C(=O)N1CCOCC1"
  Potency: "inactive"
- COMPOUND: "CC(CC1c2ccccc2CCc2ccccc21)CN(C)C (stereo not drawn)"
  Potency: "inactive"
- COMPOUND: "O=C1NC(=O)c2cc([N+](=O)[O-])ccc21"
  Potency: "inactive"
- COMPOUND: "C/C=C\\C/C=C/CCCCCCCCOC(C)=O"
  Potency: "inactive"
- COMPOUND: "CNC(=O)c1cnn(-c2nc(N)c3ncn([C@@H]4O[C@H](CO)[C@@H](O)[C@H]4O)c3n2)c1"
  Potency: "inactive"

Can you give me Potency for all of these, one by one?
1. Nc1ccc(N=Nc2ccccc2)c(N)c1
2. Nc1cccc2c1CN(C1CCC(=O)NC1=O)C2=O (stereo not drawn)
3. N#CCCN(CCO)CCO
4. CCCCCCC(C)(C)C(=O)O
5. CC(=O)OCC[N+](C)(C)C

Reply text:
1: 26.7 µM (active); 2: inactive; 3: inactive; 4: inactive; 5: inactive
